test: Chemical nature and biological activity of radioactive product in rat blood (HPLC; L5178y system)
Type: in vivo
condition.details: iv, after circulation in the body for 22 hours, read-out: modification to a biologically-inactive form
readout.kind: metabolised at 22 h

{"columns": ["structure.smiles", "readout.kind", "result"],
 "data": [
  ["CC1=CCC[C@H]2[C@](C)(Cc3cc(O)ccc3O)[C@@H](C)CC[C@]12C", "metabolised at 22 h", "≤ 15%"]
]}

* * *

test: Lethal dose in rats
condition.details: rat, in vivo; male Sprague-Dawley rats, treatment for 5 days; read-out: 50% lethal dose

{"columns": ["structure.smiles", "LD50 at 120 h [mg/kg]"],
 "data": [
  ["CC1=CCC[C@H]2[C@](C)(Cc3cc(O)ccc3O)[C@@H](C)CC[C@]12C", 236]
]}

* * *

System: L5178y mouse lymphoma cells
test: L5178y cell growth
Type: cell-based
condition.details: DDC 1.71 μM, 72 hours; read-out: ED50 with coaddition of DDC
pIC50: −log10 of the molar value.
readout.kind: pIC50

{"columns": ["structure.smiles", "measured.on", "readout.kind", "numeric.readout"],
 "data": [
  ["CC1=CCC[C@H]2[C@](C)(Cc3cc(O)ccc3O)[C@@H](C)CC[C@]12C", "L5178y mouse lymphoma cells", "pIC50", 6.97]
]}
